- Test system: VISA clinical isolates of MRSA (VI-MRSA) and of MSSA (VI-MSSA)
- Experiment notes: microbe, parasite or virus in culture
- Assay type: cell-based, Staphylococcus aureus
- Condition label: Staphylococcus aureus, BR2, VI-MRSA, Brazil
Readout label: MIC (µg/mL)

# Compound, Unit tag, Assay value
rows = [
    ("C[C@@H]1CN(c2c(F)c(N)c3c(=O)c(C(=O)O)cn(C4CC4)c3c2F)C[C@H](C)N1 [SPFX, sparfloxacin]", "µg/mL", 32),
    ("CCn1cc(C(=O)O)c(=O)c2cc(F)c(N3CCNCC3)cc21 [NFLX, norfloxacin]", "µg/mL", 64),
    ("Cc1cc(=O)n2c3c(c4c(cc13)c(CO)cc(=O)n4C)OC2 [NM, nybomycin]", "µg/mL", 0.25),
    ("Cc1cc(=O)n(C)c2c3c4c(cc12)c(C)cc(=O)n4CO3 [DNM, deoxynybomycin]", "µg/mL", 0.125),
]

Source of measurements: patent US20120258980A1
